B1: DYRK1B (parent)
chain: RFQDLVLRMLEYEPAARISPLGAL

Variants of: B1
procedureSummary: protein stability index of a GFP-peptide fusion (GPS, HEK-293T) (PSI 1-6); higher = more stable;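 also: lentivirally expressed fusions sorted by FACS into six bins by GFP to DsRed ratio, PSI derived from sequencing read proportions per bin multiplied by bin number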
recordedConditions: c terminus: a fixed tail appended
assayReadout: protein stability index
Returns: the value as a bare number; no unit string appended.

Exercise: Endpoint output: protein stability index of "A23G" . Value?
Key: 2.75

Exercise: And for "F2R" ?
Key: 2.38

Exercise: And for "V6L" ?
Key: 1.77

Exercise: And for "L10Q" ?
Key: 1.6

Exercise: And for "R8I" ?
Key: 2.21

Exercise: And for "L24Q" ?
Key: 2.27

Exercise: And for "P14L" ?
Key: 5.01

Exercise: And for "R1N" ?
Key: 2.94

Exercise: And for "Y12Q" ?
Key: 1.44

Exercise: And for "A16N" ?
Key: 3.65

Exercise: And for "Y12M" ?
Key: 2.22

Exercise: And for "R1P" ?
Key: 3.11

Exercise: And for "E13G" ?
Key: 1.82

Exercise: And for "A16K" ?
Key: 2.35

Exercise: And for "R8D" ?
Key: 1.31

Exercise: And for "E13P" ?
Key: 3.05

Exercise: And for "F2K" ?
Key: 2.15

Exercise: And for "M9G" ?
Key: 1.33

Exercise: And for "L24I" ?
Key: 4.35

Exercise: And for "R17M" ?
Key: 4.29

Exercise: And for "L21T" ?
Key: 2

Exercise: And for "Y12S" ?
Key: 2.61

Exercise: And for "S19Y" ?
Key: 3.82

Exercise: And for "L5R" ?
Key: 1.2

Exercise: And for "S19A" ?
Key: 1.17

Exercise: And for "S19P" ?
Key: 2.61

Exercise: And for "E11Q" ?
Key: 2.81

Exercise: And for "L10P" ?
Key: 2.37

Exercise: And for "E11H" ?
Key: 2.96

Exercise: And for "L5F" ?
Key: 2.62

Exercise: And for "L21Y" ?
Key: 2.98

Exercise: And for "E11Y" ?
Key: 3.21

Exercise: And for "P20V" ?
Key: 3.27

Exercise: And for "L5P" ?
Key: 2.16

Exercise: And for "Q3D" ?
Key: 1.82

Exercise: And for "A23T" ?
Key: 2.04

Exercise: And for "L21C" ?
Key: 1.98

Exercise: And for "E11N" ?
Key: 2.21

Exercise: And for "F2T" ?
Key: 2.42

Exercise: And for "E13A" ?
Key: 2.87

Exercise: And for "G22W" ?
Key: 2.76

Exercise: And for "D4R" ?
Key: 2.31

Exercise: And for "Q3T" ?
Key: 3.41

Exercise: And for "G22Y" ?
Key: 1.71

Exercise: And for "L21H" ?
Key: 3.73

Exercise: And for "L24S" ?
Key: 2.08

Exercise: And for "L7E" ?
Key: 1.8

Exercise: And for "P14I" ?
Key: 1.72

Exercise: And for "S19L" ?
Key: 4.05

Exercise: And for "I18R" ?
Key: 1.15

Exercise: And for "P20G" ?
Key: 2.01

Exercise: And for "S19K" ?
Key: 3.06

Exercise: And for "R8L" ?
Key: 1.89

Exercise: And for "R17S" ?
Key: 2.69

Exercise: And for "R8G" ?
Key: 1.33

Exercise: And for "L5Q" ?
Key: 1.1

Exercise: And for "L21S" ?
Key: 2.27

Exercise: And for "R17F" ?
Key: 1.77

Exercise: And for "V6D" ?
Key: 2.24

Exercise: And for "L21D" ?
Key: 1.78

Exercise: And for "V6Q" ?
Key: 2.12

Exercise: And for "E11L" ?
Key: 2.25

Exercise: And for "E13R" ?
Key: 1.34

Exercise: And for "L7K" ?
Key: 1.51

Exercise: And for "G22F" ?
Key: 2.04

Exercise: And for "G22V" ?
Key: 3.1

Exercise: And for "L21K" ?
Key: 1.19

Exercise: And for "L24F" ?
Key: 1.95

Exercise: And for "F2W" ?
Key: 1.39

Exercise: And for "G22H" ?
Key: 1.52

Exercise: And for "L21M" ?
Key: 1.68

Exercise: And for "V6R" ?
Key: 2

Exercise: And for "P20I" ?
Key: 2.64

Exercise: And for "L5W" ?
Key: 2

Exercise: And for "G22C" ?
Key: 1.86

Exercise: And for "E11T" ?
Key: 3.67

Exercise: And for "M9T" ?
Key: 1.83

Exercise: And for "L7S" ?
Key: 2.05

Exercise: And for "E11P" ?
Key: 3.04

Exercise: And for "M9E" ?
Key: 1.98

Exercise: And for "L7H" ?
Key: 1.03

Exercise: And for "Q3N" ?
Key: 2.28

Exercise: And for "S19R" ?
Key: 2.38

Exercise: And for "S19Q" ?
Key: 1.55

Exercise: And for "L10A" ?
Key: 3.32

Exercise: And for "E11A" ?
Key: 1.56

Exercise: And for "L21P" ?
Key: 1.93

Exercise: And for "A15P" ?
Key: 2.8

Exercise: And for "R17I" ?
Key: 4.01

Exercise: And for "Q3H" ?
Key: 1.95

Exercise: And for "Y12T" ?
Key: 1.04
